Experiment: NCI Yeast Anticancer Drug Screen. Data for the cln2 rad14 strain (AID 165);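 further: 0% = growth equal to vehicle treated cultures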
Conditions: S. cerevisiae cln2 rad14 strain, at 50.0 µM, hits give high values
This is part of a sample that, as a whole, favours compounds with a hit. Of some 79,000 tested, about 15% had one in any assay.
reported_endpoint: growth inhibition (%)
Express it in %; write the number only.

Query CC[CH2][Sn]([CH2]CC)([O]C(=O)Cc1ccc(F)cc1)[O][Sn]([CH2]CC)([CH2]CC)[O]C(=O)Cc1ccc(F)cc1 yields growth inhibition of 82.8

Query CCOC(=O)C(=O)SCC(NC(=O)OCc1ccccc1)C(=O)O (stereo unspecified) yields growth inhibition of -1.95

Query CC(C)NCC(C)(C)[N+](=O)[O-] yields growth inhibition of -4.1

Query CCOc1ccc2ccc3ccccc3c2c1NC(C)=O yields growth inhibition of 32

Query COc1c2occc2cc2ccc(=S)oc12 yields growth inhibition of -4.6

Query Cc1cc2nc(CCC(=O)O)c(=O)[nH]c2cc1C yields growth inhibition of 13.8

Query CN(/N=C\c1ccc2ccccc2c1)C1=NCCCCN1 yields growth inhibition of -37

Query CCCCCCCCCCC/C(C)=N/Nc1ccc([N+](=O)[O-])cc1[N+](=O)[O-] yields growth inhibition of 11.8

Query CCCCC(O)(CCCC)CC(C)C yields growth inhibition of -19.9

Query CCOP(=O)(OCC)C(F)(F)Cc1cnc(C)c2c1COC(C)(C)O2 yields growth inhibition of -16.7

Query COc1ccc(N2C(=O)C3c4[nH]c5ccc(F)cc5c4C4CCC(C(C)(C)C)CC4C3C2=O)cc1 (stereo unspecified) yields growth inhibition of 7.45

====

Assay: NCI Yeast Anticancer Drug Screen. Data for the bub3 strain (AID 167)
Conditions: S. cerevisiae bub3 mutant strain, at 50.0 µM
Compounds without any hit were thinned out: in the full panel of roughly 79,000, 15% have a hit. The source made the active and inactive calls. Cut-off read from the data, not from the text of the source: active = growth inhibition above about 70%; inactive = the rest.
Your answer must be one of the following: active, inactive

Kindly provide the recorded test outcome for the following compound: COc1ccc2c(c1)N=C(NNC1=Nc3cc(OC)ccc3SC1)CS2
inactive

Kindly provide the recorded test outcome for the following compound: CCOC1(OCC)C([N+](=O)[O-])=CC(=[N+]([O-])O)C=C1[N+](=O)[O-]
inactive

Kindly provide the recorded test outcome for the following compound: CC(NC(=O)C(CSCc1ccccc1)NC(=O)OCc1ccccc1)C(=O)OCc1ccccc1 (stereo not drawn)
inactive

Kindly provide the recorded test outcome for the following compound: O=c1c2ccccc2ncn1C1OC(CO)C(O)C1O (stereo not drawn)
inactive

Kindly provide the recorded test outcome for the following compound: COc1ccc(NC2=CC(=O)C(=O)c3ccccc32)nn1
inactive

Kindly provide the recorded test outcome for the following compound: O=S1(=O)OCCOS(=O)(=O)C1(F)Br
inactive

Kindly provide the recorded test outcome for the following compound: O=S1(=O)CC=CC1
inactive

Kindly provide the recorded test outcome for the following compound: CC(=O)NNC(=S)N/C=C(\C#N)c1nc2ccccc2s1
inactive

Kindly provide the recorded test outcome for the following compound: Cc1ccccc1NC(=O)NC(Oc1ccccc1)(C(F)(F)F)C(F)(F)F
inactive

Kindly provide the recorded test outcome for the following compound: CN(C)c1ccc(-c2cc(C(=O)O)c3cc(I)ccc3n2)c(Cl)c1
inactive

Kindly provide the recorded test outcome for the following compound: O=C(NC1CCCCC1)/C(=C\c1ccc(/C=C(/NC(=O)c2ccccc2)C(=O)NC2CCCCC2)cc1)NC(=O)c1ccccc1
inactive

Kindly provide the recorded test outcome for the following compound: COc1cc(CNc2nc3ccccc3n2Cc2ccccc2)cc(CN2CCOCC2)c1O
inactive

Kindly provide the recorded test outcome for the following compound: COc1cc2cc3c4ccc(OC)c(OC)c4cc[n+]3c(C)c2cc1OC (tested in a mixture with another compound)
active

Kindly provide the recorded test outcome for the following compound: COc1ccc2ccccc2c1C(Cc1ccccc1)NCCO (stereo not drawn)
inactive

Kindly provide the recorded test outcome for the following compound: O=S1(=O)C(Cl)c2ccccc2-c2ccccc2C1Cl (stereo not drawn)
inactive

Kindly provide the recorded test outcome for the following compound: O=C(NN1C(=O)C(Cl)C1c1ccccc1Cl)c1ccccc1O (stereo not drawn)
inactive

Kindly provide the recorded test outcome for the following compound: CN(C(=O)CCC1OCCO1)c1cc([N+](=O)[O-])ccc1OCc1ccccc1
inactive

Kindly provide the recorded test outcome for the following compound: CNc1ncn(-c2c(C)cccc2C)c(=O)n1
inactive

Kindly provide the recorded test outcome for the following compound: Cc1cc(C)c(N(C)C(=O)CCC(=O)O)c(Br)c1
inactive

Kindly provide the recorded test outcome for the following compound: NC(=O)C1CC(O)CN1C(=O)c1cccnc1 (stereo not drawn)
inactive

Kindly provide the recorded test outcome for the following compound: Cc1cccc2c(C=O)c[nH]c12
inactive

Kindly provide the recorded test outcome for the following compound: CC(C)NC(=O)c1ccc(CON)cc1
inactive

Kindly provide the recorded test outcome for the following compound: COc1ccc(Cl)cc1NC(C)=O
inactive

Kindly provide the recorded test outcome for the following compound: COc1cc2cc[n+]3c(C)c4ccc(OC)c(OC)c4cc3c2cc1OC (tested in a mixture with another compound)
inactive

Kindly provide the recorded test outcome for the following compound: CC(C)(C)OC(=O)Cc1ccc2c(ccn2Cc2ccccc2)c1
inactive

Kindly provide the recorded test outcome for the following compound: CC(C)c1ccc(Cc2ccc(C(C)C)c(NC(=O)C(=O)Cc3cnc4ccccc4n3)c2C(C)C)c(C(C)C)c1NC(=O)C(=O)Cc1cnc2ccccc2n1
inactive

Kindly provide the recorded test outcome for the following compound: CCCNC(=O)c1cccc(-c2cccc(C(=O)NCCC)c2)c1
inactive

Kindly provide the recorded test outcome for the following compound: CC(=O)OCC1OC(OC(C)=O)C(NC(=S)N(C)N=O)C(OC(C)=O)C1OC(C)=O (stereo not drawn)
inactive

Kindly provide the recorded test outcome for the following compound: O=C1CCN2CCC(=O)c3c(Cl)ccc1c32
inactive

Kindly provide the recorded test outcome for the following compound: NCCCCCCN1CCN(c2cccc(Cl)c2)CC1
inactive

Kindly provide the recorded test outcome for the following compound: CC=NC(C)(C)C
inactive

Kindly provide the recorded test outcome for the following compound: CCCCCCCCSC(SCCCCCCCC)=C1C(=O)N(c2ccccc2)N=C1C
inactive

Kindly provide the recorded test outcome for the following compound: CNn1c(C)n[nH]c1=O
inactive
